Hi there, I'd appreciate the recorded selectivity ratio for every entry that follows.
Measurement notes: Selectivity index, ratio of GI50 for human HaCaT cells to GI50 for human HeLa cells
Assay type: toxicity
Protocol conditions: HaCaT cells versus HeLa cells, read-out: RatioGI50

The measured selectivity ratio associated with C=CCOc1cccc(/C=C2\SC(=S)N(C3CC(=O)N(c4ccc(Cl)cc4)C3=O)C2=O)c1 (stereo not drawn) reads 1

The measured selectivity ratio associated with O=C1Nc2ccccc2/C1=C1/SC(=S)N(C2CC(=O)N(c3ccc(Cl)cc3)C2=O)C1=O (stereo not drawn) reads 1

The measured selectivity ratio associated with O=C1CC(N2C(=O)/C(=C/C(Cl)=C/c3ccc([N+](=O)[O-])cc3)SC2=S)C(=O)N1c1ccc(O)cc1 (stereo not drawn) reads 12
